targetEntity: IRE1α (Homo sapiens (Human), UniProt O75460, D688N)
Sequence (O75460 547-977 D688N): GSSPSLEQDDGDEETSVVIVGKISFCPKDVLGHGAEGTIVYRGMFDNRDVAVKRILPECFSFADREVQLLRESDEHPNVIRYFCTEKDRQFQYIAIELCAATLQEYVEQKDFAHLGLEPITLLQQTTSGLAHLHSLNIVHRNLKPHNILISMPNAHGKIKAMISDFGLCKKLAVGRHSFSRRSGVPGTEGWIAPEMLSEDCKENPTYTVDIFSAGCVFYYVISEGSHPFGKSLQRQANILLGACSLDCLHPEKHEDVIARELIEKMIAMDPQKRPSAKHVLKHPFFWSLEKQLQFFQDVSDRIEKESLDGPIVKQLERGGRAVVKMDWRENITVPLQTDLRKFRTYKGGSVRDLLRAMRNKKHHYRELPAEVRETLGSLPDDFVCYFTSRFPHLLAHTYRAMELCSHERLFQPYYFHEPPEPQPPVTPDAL
procedureDetails: IRE1α TR-FRET competition binding assay (IRE1α HTRF)
measurementConditions: TR-FRET competition binding to kinase domain of IRE1α
Structures can show the parent of a compound that is named as a salt.
readoutType: pIC50
Please keep in mind that pIC50 is minus log10 of the molar concentration; only the number is needed.

Example entries begin here.
CC(C)n1c(=O)c(-c2cc(F)c(NS(=O)(=O)CCC(F)(F)F)c(F)c2)nc2cnc(N[C@H]3CC[C@H](N(C)C)[C@@H](F)C3)nc21 (stereo in doubt) [Compound 168A]    9.62
CC(C)n1c(=O)c(-c2cc(F)c(NS(=O)(=O)Cc3ccc(F)cc3)c(F)c2F)nc2cnc(N[C@H]3CC[C@H](N(C)C)CC3)nc21 [Compound 175, hydrochloride]    9.85

Here's the next entry for you.
# return recorded pIC50 for entry CC(C)n1c(=O)c(-c2ccc(NS(=O)(=O)CCCC3CC3)c(F)c2)cc2cnc(N[C@H]3CC[C@H](N(C)C)CC3)nc21
9.70
